Where do these numbers come from? They come from patent US20260103465A1.

Readings of pIC50 for the listed molecules
Target: GSK3b (GST-full length GSK3b) (Homo sapiens, UniProt P49841)
Construct: GST-full length GSK3b: [SignalChem G08-9G]; purchased SignalChem G08-9G
Sequence (P49841 whole entry): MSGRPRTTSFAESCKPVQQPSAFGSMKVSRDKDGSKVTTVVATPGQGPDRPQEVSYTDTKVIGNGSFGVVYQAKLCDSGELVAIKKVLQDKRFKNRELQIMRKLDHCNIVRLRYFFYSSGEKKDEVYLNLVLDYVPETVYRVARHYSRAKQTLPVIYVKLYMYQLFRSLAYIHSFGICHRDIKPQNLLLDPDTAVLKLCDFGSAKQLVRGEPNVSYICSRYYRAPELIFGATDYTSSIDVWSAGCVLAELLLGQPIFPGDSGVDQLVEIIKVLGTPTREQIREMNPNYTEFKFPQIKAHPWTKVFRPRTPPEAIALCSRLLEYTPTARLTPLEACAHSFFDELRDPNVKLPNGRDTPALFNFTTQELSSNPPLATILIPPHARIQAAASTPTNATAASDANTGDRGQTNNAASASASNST
Assay: GSK3b TR-FRET kinase inhibition assay
Format: biochemical
Settings: 1 mM ATP; Table 3; read-out: GSK3b TR-FRET 1 mM ATP Average IC50
pIC50: −log10 of the molar value.

MOLECULE	pIC50
CCC1(c2ccccc2)C2=C(CC(C)(C)CC2=O)Nc2ncc(F)cc21 (single isomer, unassigned) [Compound 114A]	5.30 to 6.00

Short answer for CC1(C)CC(=O)C2=C(C1)Nc1nccc(C(F)(F)F)c1C2(C)c1ccccc1 (single isomer, unassigned) [Compound 127A] : pIC50 was 6.00 to 7.00

Short answer for CC1(C)CC(=O)C2=C(C1)Nc1ncc(Br)c(Cl)c1C2(C)c1ccccc1 (single isomer, unassigned) [Compound 145B] : pIC50 was 4.70 to 5.30

---

Molecular target: GSK3b (GST-full length GSK3b) (Homo sapiens)
Construct: GST-full length GSK3b: [SignalChem G08-9G]; purchased SignalChem G08-9G
Experiment: GSK3b TR-FRET kinase inhibition assay
Type: biochemical
Conditions: 1 mM ATP; Table 5; read-out: GSK3β TR-FRET 1 mM ATP Average IC50
pIC50: −log10 of the molar value.
Readings of pIC50 for the listed compounds

Some solved cases for reference:
COMPOUND	TARGET_SYSTEM	pIC50
CC1(C)CC(=O)C2=C(Nc3ncc(C(F)F)c(C#N)c3[C@]2(C)c2ccccc2)[C@@H]1F (single isomer, unassigned) [Compound 633C]	GSK3b (GST-full length GSK3b) (Homo sapiens)	4.70 to 5.30
CC(C)Oc1cccc(C2(C)C3=C(CC(C)(C)CC3=O)Nc3ncc(F)cc32)c1 (single isomer, unassigned) [629B]	GSK3b (GST-full length GSK3b) (Homo sapiens)	6.00 to 7.00
CC1(C)CC(=O)C2=C(C1)Nc1ncc(F)c(C#N)c1C2(C)c1cccc(-c2ccncc2CC(F)(F)F)c1 (single isomer, unassigned) [656A]	GSK3b (GST-full length GSK3b) (Homo sapiens)	6.00 to 7.00

Short answer for CC1(C)CC(=O)C2=C(Nc3ncc(F)c(C#N)c3[C@@]2(C)c2ccccc2)[C@H]1F (single isomer, unassigned) [Compound 617D] : pIC50 was 6.00 to 7.00

Short answer for CC1(C)CC(=O)C2=C(Nc3ncc(F)c(C#N)c3[C@]2(C)c2ccccc2)[C@H]1F (single isomer, unassigned) [Compound 617A] : pIC50 was 4.70 to 5.30

Short answer for CC1(C)CC(=O)C2=C(Nc3ncc(F)c(C#N)c3[C@]2(C)c2ccccc2)[C@@H]1F (single isomer, unassigned) [Compound 617C] : pIC50 was 4.70 to 5.30

Short answer for CC(C)Oc1cccc(C2(C)C3=C(CC(C)(C)CC3=O)Nc3ncc(C(F)F)c(C#N)c32)c1 (single isomer, unassigned) [650A] : pIC50 was 5.30 to 6.00

Short answer for CC1(C)CC2=C(C(=O)[C@H]1F)[C@@](C)(c1ccccc1)c1c(ncc(F)c1C#N)N2 (single isomer, unassigned) [Compound 616C] : pIC50 was 4.70 to 5.30

Short answer for CC1(C)CC(=O)C2=C(C1)Nc1ncc(F)cc1C2(C)c1cccc(-c2ccncc2CC(F)(F)F)c1 (single isomer, unassigned) [653A] : pIC50 was 5.30 to 6.00

Short answer for CC(C)Oc1cccc(C2(C)C3=C(CC(C)(C)CC3=O)Nc3ncc(C(F)F)c(C#N)c32)c1 (single isomer, unassigned) [650B] : pIC50 was 6.00 to 7.00

Short answer for CC1(C)CC(=O)C2=C(C1)Nc1ncc(C3CC3)c(C#N)c1C2(C)c1ccccc1 (single isomer, unassigned) [619A] : pIC50 was 4.70 to 5.30

Short answer for Cn1ncc2c3c(ncc21)NC1=C(C(=O)CC(C)(C)C1)C3(C)c1cccc(S(C)(=O)=O)c1 (single isomer, unassigned) [649A] : pIC50 was 5.30 to 6.00

Short answer for CC1(C)CC(=O)C2=C(C1)Nc1ncc(F)c(C#N)c1C2(C)c1cccc(F)c1 (single isomer, unassigned) [618A] : pIC50 was 4.70 to 5.30
